- Target Under Test: T1, human CD71 extracellular domain (human, UniProt P02786 89-760, biotinylated)
- T1 construct: also called hCD71; CD71-ECD
- T1 sequence (P02786 89-760): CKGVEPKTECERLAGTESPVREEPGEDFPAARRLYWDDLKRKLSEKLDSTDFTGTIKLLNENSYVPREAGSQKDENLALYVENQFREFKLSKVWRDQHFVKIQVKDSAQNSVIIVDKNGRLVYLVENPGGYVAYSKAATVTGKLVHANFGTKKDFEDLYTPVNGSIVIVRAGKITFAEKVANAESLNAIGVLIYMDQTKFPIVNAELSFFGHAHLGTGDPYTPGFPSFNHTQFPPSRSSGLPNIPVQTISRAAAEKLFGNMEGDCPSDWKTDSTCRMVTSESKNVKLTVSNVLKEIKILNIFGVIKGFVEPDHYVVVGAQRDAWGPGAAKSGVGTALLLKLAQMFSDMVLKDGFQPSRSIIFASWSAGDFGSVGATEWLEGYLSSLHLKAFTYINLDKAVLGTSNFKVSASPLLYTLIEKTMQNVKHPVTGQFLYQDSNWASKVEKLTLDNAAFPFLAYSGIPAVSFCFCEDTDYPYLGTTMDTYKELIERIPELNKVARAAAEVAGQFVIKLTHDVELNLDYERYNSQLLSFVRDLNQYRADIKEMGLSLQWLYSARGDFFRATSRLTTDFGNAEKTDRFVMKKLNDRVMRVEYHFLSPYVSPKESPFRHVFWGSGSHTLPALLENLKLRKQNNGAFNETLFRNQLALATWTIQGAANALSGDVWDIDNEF
- Assay Info: primary ELISA, RLU over HSA
If the reported hCD71:HSA equals or exceeds 100, assign 1.0. If not, assign 0.0.

Binder	Group Label
CD71-binding FN3 domain of SEQ ID NO: 447 (designed binder) MLPAPKNLVVSRVTEDSARLSWTAPDAAFDSFFIGYLEPQPPGEAIYLYVPGSERSYDLTGLKPGTEYNVTIQGVKGGFPSYPLTAQFTT	1.0
CD71-binding FN3 domain of SEQ ID NO: 511 (designed binder) MLPAPKNLVVSRVTEDSARLSWTAPDAAFDSFFIGYLEPQPPGEAIDLFVPGSERSYDLTGLKPGTEYNVTIQGVKGGFPSLPLVASFTT	0.0
CD71-binding FN3 domain of SEQ ID NO: 536 (designed binder) MLPAPKNLVVSRVTEDSARLSWTAPDAAFDSFDIGYTETVSFGEAIVLTVPGSERSYDLTGLKPGTEYIVKILGVKGGFASFPLSAIFTT	1.0
CD71-binding FN3 domain of SEQ ID NO: 496 (designed binder) MLPAPKNLVVSRVTEDSARLSWTAPDAAFDSFFIGYLEPQPPGEAIILWVPGSERSYDLTGLKPGTEYNVTIQGVKGGFPSVPLIAQFTT	0.0
CD71-binding FN3 domain of SEQ ID NO: 507 (designed binder) MLPAPKNLVVSRVTEDSARLSWTAPDAAFDSFFIGYLEPQPPGEAIHLLVPGSERSYDLTGLKPGTEYNVTIQGVKGGFPSMPLSAIFTT	1.0
CD71-binding FN3 domain of SEQ ID NO: 512 (designed binder) MLPAPKNLVVSRVTEDSARLSWTAPDAAFDSFFIGYLEPQPPGEAIDLWVPGSERSYDLTGLKPGTEYNVTIQGVKGGFPSDPLDAHFTT	1.0
CD71-binding FN3 domain of SEQ ID NO: 462 (designed binder) MLPAPKNLVVSRVTEDSARLSWTAPDAAFDSFFIGYLEPQPPGEAIHLQVPGSERSYDLTGLKPGTEYNVTIQGVKGGFPSVPLHARFTT	0.0
CD71-binding FN3 domain of SEQ ID NO: 461 (designed binder) MLPAPKNLVVSRVTEDSARLSWTAPDAAFDSFFIGYLEPQPPGEAIGLFVPGSERSYDLTGLKPGTEYNVTIQGVKGGFPSMPLSPIFTT	1.0
CD71-binding FN3 domain of SEQ ID NO: 534 (designed binder) MLPAPKNLVVSRVTEDSARLSWTAPDAAFDSFFIGYLEPQPPGEAIHLLVPGSERSYDLTGLKPGTEYNVTIQGVKGGFPSGPLQASFTT	1.0
